assay: Evaluation of brain penetration properties; format: in vivo, BALB/cA mice; details: mouse, brain; 0.5 hours after oral 50 mg/kg/day, BALB/cA mice; read-out: Compound concentration in brain
Measured Metric: concentration at 0.5 h (nM)
Give the number; nM is assumed, so skip it.

>  <Compound String>
C=CC(=O)N1C[C@H](n2c(C#CC)c(C(=O)NC(C)(C)c3ccccc3)c3c(N)ncnc32)C[C@@H]1C

>  <concentration at 0.5 h (nM)>
1400

$$$$
>  <Compound String>
C=CC(=O)N1C[C@H](n2c(C#CC3CC3)c(C(=O)N[C@H](C)c3ccccc3)c3c(N)ncnc32)C[C@@H]1COC

>  <concentration at 0.5 h (nM)>
1600

$$$$
>  <Compound String>
C=CC(=O)N1C[C@H](n2c(C#CC)c(C(=O)N[C@H](CC)c3ccccc3)c3c(N)ncnc32)C[C@@H]1C

>  <concentration at 0.5 h (nM)>
2800

$$$$
>  <Compound String>
C=CC(=O)N1C[C@H](n2c(C#CC3CC3)c(C(=O)N[C@H](C)c3cccc(F)c3F)c3c(N)ncnc32)C[C@@H]1C

>  <concentration at 0.5 h (nM)>
2400

$$$$

# context switch: different compound, same concentration at 0.5 h
Looking for the measured concentration at 0.5 h of "C=CC(=O)N1C[C@H](n2c(C#CC(C)(C)OC)c(C(=O)N[C@H](C)c3ccccc3)c3c(N)ncnc32)C[C@@H]1C" , can you help?
2800

* * *

experiment: Evaluation of oral absorbability; type: in vivo, BALB/cA mice; conditions: mouse; plasma, oral 50 mg/kg/day, BALB/cA mice
Measured Metric: log10 AUC(0-t) (log10 of the value in µM·h)
Field: value | Transform: log10 | Quantity: AUC(0-t) | Unit: µM·h

Recorded log10 AUC(0-t) of C=CC(=O)N1C[C@H](n2c(C#CC3CC3)c(C(=O)N[C@H](C)c3ccccc3)c3c(N)ncnc32)C[C@@H]1C [Example 11] , please.
1.49

* * *

assay: Evaluation of brain penetration properties; assay type: in vivo, BALB/cA mice; conditions: mouse, plasma; 0.5 hours after oral 50 mg/kg/day, BALB/cA mice; read-out: Compound concentration in plasma
Documented concentration at 0.5 h across a set of compounds
Unit µM implied. Number only.

Worked examples, 3 compounds total:
>  <Compound String>
C=CC(=O)N1C[C@H](n2c(C#CC)c(C(=O)N[C@H](C)c3cccc(Cl)c3)c3c(N)ncnc32)C[C@@H]1C

>  <concentration at 0.5 h (µM)>
7.5

$$$$
>  <Compound String>
C=CC(=O)N1C[C@H](n2c(C#CC3CC3)c(C(=O)N[C@H](C)c3cccc(F)c3F)c3c(N)ncnc32)C[C@@H]1C

>  <concentration at 0.5 h (µM)>
13

$$$$
>  <Compound String>
C=CC(=O)N1C[C@H](n2c(C#CC3CC3)c(C(=O)NC(C)(C)c3ccccc3)c3c(N)ncnc32)C[C@@H]1C

>  <concentration at 0.5 h (µM)>
13

$$$$

Let us move to another entry and its concentration at 0.5 h.
Requested field: concentration at 0.5 h. Item: "C=CC(=O)N1C[C@H](n2c(C#CC)c(C(=O)NC(C)(C)c3ccccc3)c3c(N)ncnc32)C[C@@H]1C"
11

* * *

# Kp at 0.5 h annotations
assay: Evaluation of brain penetration properties; format: in vivo, BALB/cA mice; conditions: mouse, brain; 0.5 hours after oral 50 mg/kg/day, BALB/cA mice; read-out: Kp value (Compound concentration in brain/plasma)
Number, no unit, nothing else.

These solved cases illustrate the format of a correct answer.
>  <Compound String>
C=CC(=O)N1C[C@H](n2c(C#CC)c(C(=O)N[C@H](C)c3cc(F)cc(F)c3)c3c(N)ncnc32)C[C@@H]1C

>  <Kp at 0.5 h>
0.15

$$$$
>  <Compound String>
C=CC(=O)N1C[C@H](n2c(C#CC3CC3)c(C(=O)N[C@H](C)c3ccccc3)c3c(N)ncnc32)C[C@@H]1COC

>  <Kp at 0.5 h>
0.22

$$$$

Would you kindly share the measured Kp at 0.5 h for "C=CC(=O)N1C[C@H](n2c(C#CC)c(C(=O)NC(C)(C)c3ccccc3F)c3c(N)ncnc32)C[C@@H]1C" ?
0.15

* * *

assay: Evaluation of brain penetration properties; assay type: in vivo, BALB/cA mice; details: mouse, brain; 0.5 hours after oral 50 mg/kg/day, BALB/cA mice; read-out: Kp value (Compound concentration in brain/plasma)
Measured Metric: Kp at 0.5 h

Below, each entry is followed by its recorded Kp at 0.5 h result.
>  <Compound>
C=CC(=O)N1C[C@H](n2c(C#CC(C)(C)OC)c(C(=O)N[C@H](C)c3ccccc3)c3c(N)ncnc32)C[C@@H]1C [Example 13]

>  <Kp at 0.5 h>
0.22

$$$$
>  <Compound>
C=CC(=O)N1C[C@H](n2c(C#CCC)c(C(=O)N[C@H](C)c3ccccc3)c3c(N)ncnc32)C[C@@H]1C [Example 14]

>  <Kp at 0.5 h>
0.21

$$$$
>  <Compound>
C=CC(=O)N1C[C@H](n2c(C#CC)c(C(=O)NC(C)(C)c3ccccc3)c3c(N)ncnc32)C[C@@H]1C [Example 3]

>  <Kp at 0.5 h>
0.13

$$$$
>  <Compound>
C=CC(=O)N1C[C@H](n2c(C#CC3CC3)c(C(=O)N[C@H](C)c3cccc(F)c3F)c3c(N)ncnc32)C[C@@H]1C [Example 10]

>  <Kp at 0.5 h>
0.18

$$$$
>  <Compound>
C=CC(=O)N1C[C@H](n2c(C#CC(C)(C)C)c(C(=O)N[C@H](C)c3ccccc3)c3c(N)ncnc32)C[C@@H]1C [Example 12]

>  <Kp at 0.5 h>
0.29

$$$$

From here, focus on the item given below.
Item under review: C=CC(=O)N1C[C@H](n2c(C#CC)c(C(=O)N[C@H](C)c3ccccc3)c3c(N)ncnc32)C[C@@H]1C [Example 2] . Reported Kp at 0.5 h?
0.27

* * *

Target: HER2 (Homo sapiens)
Construct: purchased Carna Biosciences, Inc
Sequence (P04626 23-1255): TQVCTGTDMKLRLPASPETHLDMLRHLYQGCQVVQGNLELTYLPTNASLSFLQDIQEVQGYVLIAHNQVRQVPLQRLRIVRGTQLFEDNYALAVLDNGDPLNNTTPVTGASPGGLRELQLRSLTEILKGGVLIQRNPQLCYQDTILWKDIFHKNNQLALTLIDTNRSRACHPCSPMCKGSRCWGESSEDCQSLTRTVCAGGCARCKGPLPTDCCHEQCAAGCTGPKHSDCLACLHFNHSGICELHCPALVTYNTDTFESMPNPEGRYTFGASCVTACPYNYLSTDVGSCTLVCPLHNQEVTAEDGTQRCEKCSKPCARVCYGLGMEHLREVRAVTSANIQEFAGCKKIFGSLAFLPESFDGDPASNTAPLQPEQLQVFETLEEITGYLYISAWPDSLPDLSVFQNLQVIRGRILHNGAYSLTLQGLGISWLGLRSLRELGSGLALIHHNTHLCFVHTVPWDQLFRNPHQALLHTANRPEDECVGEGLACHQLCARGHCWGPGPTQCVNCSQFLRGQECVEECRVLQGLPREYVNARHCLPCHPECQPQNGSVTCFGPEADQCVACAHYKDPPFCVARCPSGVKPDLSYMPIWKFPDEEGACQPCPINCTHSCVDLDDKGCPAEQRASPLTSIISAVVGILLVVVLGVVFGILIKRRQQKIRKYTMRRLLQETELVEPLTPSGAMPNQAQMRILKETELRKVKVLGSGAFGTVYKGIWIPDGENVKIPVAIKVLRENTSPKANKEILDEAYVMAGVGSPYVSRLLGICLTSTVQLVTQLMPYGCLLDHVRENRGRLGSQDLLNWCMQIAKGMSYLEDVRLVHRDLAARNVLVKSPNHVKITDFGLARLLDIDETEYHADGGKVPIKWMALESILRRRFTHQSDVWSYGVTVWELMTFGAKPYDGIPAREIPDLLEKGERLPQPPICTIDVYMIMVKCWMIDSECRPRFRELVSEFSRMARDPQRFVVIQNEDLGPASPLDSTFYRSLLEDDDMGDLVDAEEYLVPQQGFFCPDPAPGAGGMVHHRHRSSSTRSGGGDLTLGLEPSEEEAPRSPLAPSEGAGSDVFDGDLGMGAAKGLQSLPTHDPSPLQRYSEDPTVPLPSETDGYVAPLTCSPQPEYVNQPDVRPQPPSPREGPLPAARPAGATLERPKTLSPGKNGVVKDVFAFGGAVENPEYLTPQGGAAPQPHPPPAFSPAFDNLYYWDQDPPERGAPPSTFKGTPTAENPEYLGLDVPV
Assay: Inhibitory effect (in vitro) on HER2 phosphorylation activity
Assay type: biochemical
Details: recombinant human HER2, ATP 5 μM, 25° C. 30 minutes
Text: In order to determine conditions for a method of measuring the in vitro inhibitory activity of a compound against HER2 phosphorylation activity, based on the report regarding a HER2 kinase reaction using, as a substrate, a peptide having the same sequence (5-FAM-[…]-CONH2) as that of ProfilerPro Peptide 22 of PerkinElmer (Xie H et al., PLoS One. 2011; 6(7): e21487), ProfilerPro Peptide 22 was used as a substrate. […]
Entries and their measured IC50 follow.

Sample records with IC50:
>  <Compound>
C=CC(=O)N1C[C@H](n2c(C#CC3CC3)c(C(=O)NC(C)(C)c3ccccc3)c3c(N)ncnc32)C[C@@H]1C [Example 9]

>  <IC50>
5.6 nM

$$$$
>  <Compound>
C=CC(=O)N1C[C@H](n2nc(C(=O)Nc3ccc(CC(=O)N(C)C)c(C)c3C)c3c(N)ncnc32)C[C@@H]1C [Comp. Ex. 2, reference compound]

>  <IC50>
19 nM

$$$$
>  <Compound>
CC#Cc1c(C(=O)N[C@H](C)c2ccccc2)c2c(N)ncnc2n1[C@@H]1C[C@H](C)N(C(=O)/C=C/C)C1 [Comp. Ex. 6]

>  <IC50>
390 nM

$$$$
>  <Compound>
C=CC(=O)N1C[C@H](n2c(C#CCC)c(C(=O)N[C@H](C)c3ccccc3)c3c(N)ncnc32)C[C@@H]1C [Example 14]

>  <IC50>
2.2 nM

$$$$
>  <Compound>
C=CC(=O)N1C[C@H](n2c(C#CC)c(C(=O)NCc3ccccc3C)c3c(N)ncnc32)C[C@@H]1C [Comp. Ex. 4]

>  <IC50>
54 nM

$$$$
>  <Compound>
C=CC(=O)N1C[C@H](n2c(C#CC)c(C(=O)N(C)[C@H](C)c3ccccc3)c3c(N)ncnc32)C[C@@H]1C [Comp. Ex. 5]

>  <IC50>
130 nM

$$$$
>  <Compound>
C=CC(=O)N1C[C@H](n2c(C#CC(C)C)c(C(=O)NC(C)(C)c3ccccc3F)c3c(N)ncnc32)C[C@@H]1C [Example 15]

>  <IC50>
4.6 nM

$$$$
>  <Compound>
C=CC(=O)N1C[C@H](n2c(C#CC)c(C(=O)N[C@H](C)c3cccc(Cl)c3)c3c(N)ncnc32)C[C@@H]1C [Example 6]

>  <IC50>
2.8 nM

$$$$

State the recorded IC50 for this entry: C=CC(=O)N1C[C@H](n2c(C#CC3CC3)c(C(=O)N[C@H](C)c3ccccc3)c3c(N)ncnc32)C[C@@H]1CC [Example 17]
2.9 nM

What does the data say about its IC50? Entry: C=CC(=O)N1C[C@H](n2c(C#CC3CC3)c(C(=O)N[C@H](C)c3ccccc3)c3c(N)ncnc32)C[C@@H]1COCC [Example 19]
4.4 nM

Give the measured IC50 of CC#Cc1c(C(=O)Nc2ccc(COC)cc2)c2c(N)ncnc2n1C1(C)CC1 [Comp. Ex. 1, reference compound] .
> 10000 nM

Name the recorded IC50 for C=CC(=O)N1C[C@H](n2c(C#CC)c(C(=O)N[C@H](CC)c3ccccc3)c3c(N)ncnc32)C[C@@H]1C [Example 4] .
3.9 nM

Would you kindly share the measured IC50 for C=CC(=O)N1C[C@H](n2c(C#CC3CC3)c(C(=O)N[C@H](C)c3ccccc3)c3c(N)ncnc32)C[C@@H]1COC [Example 18] ?
2.3 nM

IC50 for C=CC(=O)N1C[C@H](n2c(C#CC(C)(C)OC)c(C(=O)N[C@H](C)c3ccccc3)c3c(N)ncnc32)C[C@@H]1C [Example 13] ?
5.2 nM

Given C=CC(=O)N1C[C@H](n2c(C#CC)c(C(=O)NCC3CCCCC3)c3c(N)ncnc32)C[C@@H]1C [Comp. Ex. 3] , state its recorded IC50.
630 nM

# lookup: IC50 of C=CC(=O)N1C[C@H](n2c(C#CC)c(C(=O)N[C@H](C)c3ccc(F)cc3F)c3c(N)ncnc32)C[C@@H]1C [Example 7]
4.9 nM

Tell me the measured IC50 of C=CC(=O)N1C[C@H](n2c(C#CC3CC3)c(C(=O)N[C@H](C)c3cccc(F)c3F)c3c(N)ncnc32)C[C@@H]1C [Example 10] , please.
2.2 nM

Quick one: IC50 for C=CC(=O)N1C[C@H](n2c(C#CC)c(C(=O)N[C@H](C)c3ccccc3)c3c(N)ncnc32)C[C@@H]1CC [Example 16] ?
3.3 nM
